- target.entity: human RXFP1 (Homo sapiens)
- Construct: expressed in transfected cells
- Sequence (Q9HBX9 whole entry): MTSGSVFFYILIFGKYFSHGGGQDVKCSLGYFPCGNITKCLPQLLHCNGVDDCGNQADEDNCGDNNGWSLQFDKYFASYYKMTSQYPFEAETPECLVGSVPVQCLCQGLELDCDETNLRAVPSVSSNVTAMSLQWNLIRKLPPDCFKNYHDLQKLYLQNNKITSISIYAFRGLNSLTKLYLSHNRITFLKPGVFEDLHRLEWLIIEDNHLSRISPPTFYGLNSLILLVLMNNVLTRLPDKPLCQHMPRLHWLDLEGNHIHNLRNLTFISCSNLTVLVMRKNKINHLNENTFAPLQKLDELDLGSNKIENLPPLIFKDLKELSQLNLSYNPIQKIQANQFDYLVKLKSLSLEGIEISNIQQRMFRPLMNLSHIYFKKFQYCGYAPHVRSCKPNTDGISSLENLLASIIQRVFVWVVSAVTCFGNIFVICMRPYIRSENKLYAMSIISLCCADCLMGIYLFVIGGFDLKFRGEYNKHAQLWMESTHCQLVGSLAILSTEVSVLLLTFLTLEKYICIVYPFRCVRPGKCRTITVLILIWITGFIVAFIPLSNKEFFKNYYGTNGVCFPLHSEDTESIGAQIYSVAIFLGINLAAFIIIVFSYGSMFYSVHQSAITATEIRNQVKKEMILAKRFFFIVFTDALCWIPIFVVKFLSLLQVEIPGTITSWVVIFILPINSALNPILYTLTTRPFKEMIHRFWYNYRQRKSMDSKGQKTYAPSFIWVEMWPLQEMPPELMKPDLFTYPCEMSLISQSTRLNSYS
- test.method.notes: RXFP1 cAMP assay (hRXFP1 HEK293 cAMP assay, HTRF)
- Type: cell-based
- measurement.conditions: HEK293 cells stably expressing human RXFP1, 30 min at room temperature, read-out: cAMP hRXFP1 HEK293 Assay EC50
pEC50 by entry:
pEC50 (log units): -log10 of the concentration in mol/L.

// known answers, use as guide
compound | numeric.value
COc1ccc(-c2cc(C(=O)O)ccc2F)cc1C(=O)N[C@@H]1C2CCC(/C2=C/C2CC2)[C@@H]1C(=O)Nc1cccc(-c2csnn2)c1 (some centres unmarked) | 6.18
CC[C@H](NC(=O)[C@@H]1[C@H](NC(=O)c2cc(C3=NOC4COCC34)ccc2OC)[C@@H]2CC[C@H]1/C2=C/C1CC1)C1CCC1 (some centres unmarked) | 6.31
COc1ccc(-c2cnc(C)nc2)cc1C(=O)N[C@H]1[C@@H](C(=O)Nc2ccc(F)c(C(F)(F)F)c2)[C@H]2CC[C@@H]1C2=C(C)C | 6.29
COc1cc(F)c(F)cc1C(=O)N[C@@H]1C2CCC(/C2=C/c2ccccc2)[C@]1(F)C(=O)Nc1ccc(F)c(C(F)(F)F)c1 (some centres unmarked) | 6.62
COc1ccc(C2=NOC3CC(C(O)C(F)(F)F)CC23)cc1C(=O)N[C@H]1[C@@H](C(=O)Nc2ccc(F)c(C(F)(F)F)c2)[C@H]2CC[C@@H]1/C2=C\C1CC1 (some centres unmarked) [compound 856] | 8.33

Request: Look up pEC50: COc1c(F)cc(C2=NOC3COCC23)cc1C(=O)N[C@H]1[C@@H](C(=O)Nc2ccc(F)c(C(F)(F)F)c2)[C@H]2CC[C@@H]1/C2=C\C1CC1 (some centres unmarked)
Result: 9.10

Request: Look up pEC50: COc1ccc(C2=NOC3CC(C#N)CC23)cc1C(=O)N[C@H]1[C@@H](C(=O)N[C@H](C)C2(C)CC2)[C@H]2CC[C@@H]1/C2=C\C1CC1 (some centres unmarked)
Result: 8.92

Request: Look up pEC50: COc1ccc(-c2cc(C3OC(=O)N(C)C3=O)ccc2F)cc1C(=O)N[C@@H]1C2CCC(/C2=C/C2CC2)[C@@H]1C(=O)Nc1ccc(F)c(C(F)(F)F)c1 (some centres unmarked)
Result: 8.15

Request: Look up pEC50: COc1ccc(/C=C2\C3CCC2[C@H](C(=O)Nc2ccc(F)c(C(F)(F)F)c2)[C@@H]3NC(=O)c2cc(F)c(F)cc2OC)cc1 (some centres unmarked)
Result: 6.03

Request: Look up pEC50: COc1ccc(C2=NOC3CC(C(C)O)CC23)cc1C(=O)N[C@H]1[C@@H](C(=O)Nc2ccc(F)c(C(F)(F)F)c2)[C@H]2CC[C@@H]1/C2=C\C1CC1 (some centres unmarked) [compound 855]
Result: 8.35

Request: Look up pEC50: COc1c(F)cc(C2=NOC3CC(CO)CC23)cc1C(=O)N[C@H]1[C@@H](C(=O)Nc2ccc(F)c(C(F)(F)F)c2)[C@H]2CC[C@@H]1/C2=C\CCC(F)(F)F (some centres unmarked)
Result: 8.85
